Cited source: patent US11040026B2

target: UniProt P11229; assay: Allosteric potency EC50 for muscarinic M1 receptor (CHO pCRE-Luc reporter assay); type: cell-based; conditions: in presence of EC20 of acetylcholine; CHO cells, luciferase reporter, 4 hours
Sequence (P11229 whole entry): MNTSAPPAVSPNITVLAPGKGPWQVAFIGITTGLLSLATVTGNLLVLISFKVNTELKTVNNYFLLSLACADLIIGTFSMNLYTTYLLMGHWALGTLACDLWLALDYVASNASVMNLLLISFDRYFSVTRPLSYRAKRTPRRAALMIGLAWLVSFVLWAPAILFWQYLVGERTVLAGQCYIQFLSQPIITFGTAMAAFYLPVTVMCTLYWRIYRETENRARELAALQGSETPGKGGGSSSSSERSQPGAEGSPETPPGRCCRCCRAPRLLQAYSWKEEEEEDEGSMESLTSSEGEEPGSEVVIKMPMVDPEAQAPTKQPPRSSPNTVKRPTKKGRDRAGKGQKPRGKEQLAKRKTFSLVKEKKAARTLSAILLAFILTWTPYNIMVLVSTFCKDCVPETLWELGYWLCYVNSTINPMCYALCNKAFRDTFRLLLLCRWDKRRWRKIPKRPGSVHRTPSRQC
measure name: EC50 (nM)

(1) Cc1cc(Cc2cc(C(=O)N[C@H]3CCCC[C@@H]3O)nc3c2ccn3C)ccn1
(2) Cn1ccc2c(Cc3ccc(Cl)nc3)cc(C(=O)N[C@H]3CCCC[C@@H]3O)nc21
Request: Lab note: check whether 1 or 2 shows the higher recorded EC50. # answer = label of selected item
Response: 1

(A) Cn1cc(-c2ccc(Cc3cc(C(=O)NC4CCOCC4O)nc4c3ccn4C)cc2)cn1 (racemic)
(B) Cn1ccc2c(Cc3ccnc(F)c3)cc(C(=O)NC3CCOCC3O)nc21 (single isomer, unassigned) [Example 38]
Request: Which value of EC50 is smaller, the one for A or the one for B ? # answer = label of selected item
Response: A
(A: 38 nM, B: 983 nM)

(I) CN1CCOc2c(Cc3ccc(F)cc3)cc(C(=O)N[C@H]3CCCC[C@@H]3O)nc21
(II) Cn1ccc2c(Cc3cc(F)ncc3F)cc(C(=O)N[C@H]3CCCC[C@@H]3O)nc21
Request: Which value of EC50 is smaller, the one for I or the one for II ? # answer = label of selected item
Response: I
